Please provide measured deltaTm for the entries that follow.
Species on record: Homo sapiens
Test: Thermal stabilization of human HRAS1 G-quadruplex FAM-TCGGGTTGCGGGCGCAGGGCACGGGCG-TAMRA DNA assessed as change in melting temperature at 1:5 DNA:ligand ratio by FRET assay
Respond with the figure and its unit, in that order.

Query block: deltaTm lookup needed for `N=C(N)NCCCNc1c2c(c(NCCNC(=N)N)c3ccsc13)C(=O)c1ccccc1C2=O` , thanks.
Result block: 13 K

Query block: Would you kindly share the measured deltaTm for `N=C(N)NCCCNc1c2c(c(NCCNC(=N)N)c3sccc13)C(=O)c1ccccc1C2=O` ?
Result block: 16 K

Query block: Consider the molecule shown here: `N=C(N)NCCCNc1c2c(c(NCCCNC(=N)N)c3sccc13)C(=O)c1ccccc1C2=O` What is its recorded deltaTm?
Result block: 19 K

Query block: Need deltaTm, item `N=C(N)NCCNc1c2c(c(NCCNC(=N)N)c3sccc13)C(=O)c1ccccc1C2=O`
Result block: 12 K

Query block: Could you tell me which deltaTm is on file for `N=C(N)NCCCCNc1c2c(c(NCCCCNC(=N)N)c3sccc13)C(=O)c1ccccc1C2=O` ?
Result block: 20 K
